- Test Target: hMPV A1 F monomer (human metapneumovirus)
- Experiment Description: ELISA on coated recombinant protein, OD 405 nm
Known EC50 of a selection of binders

Binder	EC50 (µg/mL)
MPV481 (antibody, V domains shown) VH: EVQLVQSGGGLVKPGGSLRLSCAASGLPFNNAWMNWVRQAPGKGLEWVGRIKSKIDGGTTEYAAPVKGRFTISRDDSENTLYLQMNSLRTEDTAVYYCTTEYYALLSGNYSDCWGQGTLVTVSS VL: DIVMTQSPFSLSLSPGERATLSCRASQSIKRAYLGWYQQKPGQAPRLLIYGASNRATGIPDRFSGSGSGTDFTLTISRLEPEDFAVYYCQQYGDSPGGSFGQGTKLEIR	0.17
MPV491 (antibody, V domains shown) VH: QVQLQESGPGLVKSSQTLSLTCTVSGGSISSVTSHWTWIRQHPGKGLEWIGYIFSSGTTYYSPSLRSRLTMSVDTSKNQFSLQLSSVTAADTAMYYCARGIYCGDSCYKGTDYWGRGTLVTVSS VL: IRLMTQTPVTLPVTPGEPASISCRSSQSLLHSNGYNYLDWYLQKPGQSPQLLIYRGSTRASGVPDRFSGSGSGTEFTLKISRVEAEDVGVYYCMQGLQTPYTFGQGTKLESR	1.3
MPV483 (antibody, V domains shown) VH: EVQLVQSGAELKKPGSSVKVSCKASGDTFSNYAISWVRQAPGQGLEWMGGIIPIYNTANYAQKFQGRVTLTADESTSTAYMELSSLRSEDTAVYYCARDVRNNWSVLRGARYYYYGMDVWGQGTTVTVSS VL: DIVMTQTPFSLSASVGDRVTVTCRASQDISNSLAWFQQKPGKAPKSLIYAASSLQSGVPTRFSGGGSGTDFTLTISSLQPEDFATFYCLQYDSFPPTFGGGTKVEI	0.16
MPV485 (antibody, V domains shown) V domain 1: EVQLQEPGPGLVKPSETLSLTCTVSGGSISSTNSFWGWVRQPPGKGLEWIGSIYYSGTTYYNSSLKSRVTISVDTSKNQFSLRLSSVTAADTAVYYCARQGLTSSWYDGSGLDVWG V domain 2: SYELTQPPSVSVSPGQTASITCSGDKLGNKYACWYQQRPGQSPVLVIYQDTKRPSGIPERFSGSNSGNTATLTISGTQAMDEADYYCQAWDSNTVVFGGGTKLTVL	0.24
MPV478 (antibody, V domains shown) VH: EVQLVQSGAEVKKPGASVKVSCNASGYTFTGYYIHWVRQAPGQGLEWMGWINPRSGGTNYAQKFQGRVTLTRDTSITTAYMDVTRLRPDDTAVYYCATTREGIVLMPRGRGDDALDTWGQGTTVIVSS VL: DIVMTQSPVSLTVSLGERATINCKSSQSVLSTSNNENYLAWYQQKPGQPPNLLIYWASTRESGVPDRFSGSGSGTDFTLTISSLQAEDVAVYYCQQYFATPITFGPGTKVDVK	0.012
